# Tested on: Escherichia coli
# run_description: Inhibition of Escherichia coli MurA using PEP as substrate assessed as inorganic phosphate release at 25 uM preincubated for 10 mins measured after 60 mins […]
measured_quantity: inhibition

Solved entries (count: 2):
# smiles_string, experimental_target, measured_quantity, reported_measurement
measured = [
    ("O=C1NC(=S)S/C1=C\\c1ccc2ccccc2c1", "Escherichia coli", "inhibition", "15%"),
    ("COc1ccc(/C=C2\\SC(=O)NC2=O)cc1", "Escherichia coli", "inhibition", "84%"),
]

Okay, next one:
Query :: // inhibition lookup, key: O=C1NC(=S)N/C1=C\c1ccco1
Result :: 22%
